- MEASUREMENT TARGET: SIRT1 (Homo sapiens, UniProt Q96EB6)
- Construct: made in house; host or cells: E. coli BL21(DE3)
- ASSAY DETAILS: mass spectrometry based assay to identify modulators of SIRT1 activity
- Assay type: biochemical
- TEST PARAMETERS: 10 nM SIRT1, 0.5 μM peptide substrate, 120 μM βNAD+, 25 minutes at 25° C.
ENDPOINT LABEL: EC1.5 (concentration of test compound that results in 150% activation of SIRT1)

compound="O=C(Nc1cccc2c1C(=O)N(c1cccc(OC(F)(F)F)c1)C2)c1cccc(OCC(O)CO)n1 (centres unmarked) [Compound 131]" measurement_target="SIRT1 (Homo sapiens, UniProt Q96EB6)" result="C (EC1.5>25 μM)"
compound="Cc1ccc(N2Cc3cccc(NC(=O)Cc4cccnc4)c3C2=O)cc1 [Compound 117]" measurement_target="SIRT1 (Homo sapiens, UniProt Q96EB6)" result="C (EC1.5>25 μM)"
compound="O=C(Cc1cccc(F)c1)Nc1cccc2c1C(=O)N(c1cccc(C(F)(F)F)c1)C2 [Compound 110]" measurement_target="SIRT1 (Homo sapiens, UniProt Q96EB6)" result="C (EC1.5>25 μM)"
compound="O=C(Nc1cccc2c1C(=O)N(c1cccc(C(F)(F)F)c1)C2)c1cccc(C2CCNC2)c1 (centres unmarked) [Compound 138]" measurement_target="SIRT1 (Homo sapiens, UniProt Q96EB6)" result="A (EC1.5<10 μM)"
compound="O=C(Nc1cccc2c1C(=O)N(c1cccc(C(F)(F)F)c1)C2)c1cnccn1 [Compound 100]" measurement_target="SIRT1 (Homo sapiens, UniProt Q96EB6)" result="A (EC1.5<10 μM)"

Name the reported EC1.5 (concentration of test compound that results in 150% activation of SIRT1) value associated with the compound COc1cccc(N2Cc3cccc(NC(=O)Cc4cccnc4)c3C2=O)c1 [Compound 116]
C (EC1.5>25 μM)

Name the reported EC1.5 (concentration of test compound that results in 150% activation of SIRT1) value associated with the compound O=C(Nc1cccc2c1C(=O)N(c1cccc(C(F)(F)F)c1)C2)c1cccc(N2CCOCC2)n1 [Compound 135]
C (EC1.5>25 μM)

* * *

- MEASUREMENT TARGET: SIRT1 (Homo sapiens)
- Construct: made in house; host or cells: E. coli BL21(DE3)
- Sequence (Q96EB6 1-747): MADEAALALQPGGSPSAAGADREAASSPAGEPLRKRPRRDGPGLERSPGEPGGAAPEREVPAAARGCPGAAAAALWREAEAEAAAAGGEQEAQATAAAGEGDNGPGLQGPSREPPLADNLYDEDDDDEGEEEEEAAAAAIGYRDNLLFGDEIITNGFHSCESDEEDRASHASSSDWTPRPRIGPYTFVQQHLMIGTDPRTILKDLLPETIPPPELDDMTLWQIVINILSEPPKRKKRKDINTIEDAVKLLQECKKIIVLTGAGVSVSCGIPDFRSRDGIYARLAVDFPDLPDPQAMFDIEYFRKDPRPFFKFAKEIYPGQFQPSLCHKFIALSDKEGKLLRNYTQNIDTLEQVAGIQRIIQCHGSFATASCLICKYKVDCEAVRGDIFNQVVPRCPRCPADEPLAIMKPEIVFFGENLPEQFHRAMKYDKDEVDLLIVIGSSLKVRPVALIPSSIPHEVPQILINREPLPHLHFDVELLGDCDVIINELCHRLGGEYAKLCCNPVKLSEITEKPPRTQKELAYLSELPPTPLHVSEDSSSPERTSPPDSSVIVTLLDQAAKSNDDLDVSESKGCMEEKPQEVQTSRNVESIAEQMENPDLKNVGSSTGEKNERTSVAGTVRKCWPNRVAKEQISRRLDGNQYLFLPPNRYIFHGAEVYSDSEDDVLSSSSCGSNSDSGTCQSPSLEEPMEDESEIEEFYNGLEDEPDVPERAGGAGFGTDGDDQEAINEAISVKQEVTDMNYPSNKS
- ASSAY DETAILS: mass spectrometry based assay to identify modulators of SIRT1 activity
- Assay type: biochemical
- TEST PARAMETERS: 10 nM SIRT1, 0.5 μM peptide substrate, 120 μM βNAD+, 25 minutes at 25° C.
ENDPOINT LABEL: EC1.5 (concentration of test compound that results in 150% activation of SIRT1)

Example compounds with recorded EC1.5 (concentration of test compound that results in 150% activation of SIRT1):
compound="O=C(Nc1cccc2c1C(=O)N(c1cccc(C(F)(F)F)c1)C2)c1ccc(CN2CCCC2)cc1 [Compound 125]" result="A (EC1.5<10 μM)"
compound="O=C(Cc1ccc(F)cc1)Nc1cccc2c1C(=O)N(c1cccc(C(F)(F)F)c1)C2 [Compound 113]" result="C (EC1.5>25 μM)"
compound="O=C(Nc1cccc2c1C(=O)N(c1cccc(C(F)(F)F)c1)C2)c1ccncn1 [Compound 127]" result="C (EC1.5>25 μM)"
compound="O=C(Cc1cccnc1)Nc1cccc2c1C(=O)N(c1cccc(C(F)(F)F)c1)C2 [Compound 101]" result="C (EC1.5>25 μM)"
compound="O=C(Nc1cccc2c1C(=O)N(c1cccc(C(F)(F)F)c1)C2)c1cccc(CN2CCOCC2)n1 [Compound 130]" result="A (EC1.5<10 μM)"

Name the reported EC1.5 (concentration of test compound that results in 150% activation of SIRT1) value associated with the compound Cc1ccccc1N1Cc2cccc(NC(=O)Cc3cccnc3)c2C1=O [Compound 114]
C (EC1.5>25 μM)

Name the reported EC1.5 (concentration of test compound that results in 150% activation of SIRT1) value associated with the compound O=C(Cc1cccnc1)Nc1cccc2c1C(=O)N(c1cccc(OC(F)(F)F)c1)C2 [Compound 107]
C (EC1.5>25 μM)
